subject_of_test: Recombinant human MASP2 enzyme (fragment corresponding to amino acids 297-686, C-terminal His Tag) (human, UniProt O00187 297-686)
Sequence (O00187 other isoform, or with tags, fused parts or gaps limits assumed): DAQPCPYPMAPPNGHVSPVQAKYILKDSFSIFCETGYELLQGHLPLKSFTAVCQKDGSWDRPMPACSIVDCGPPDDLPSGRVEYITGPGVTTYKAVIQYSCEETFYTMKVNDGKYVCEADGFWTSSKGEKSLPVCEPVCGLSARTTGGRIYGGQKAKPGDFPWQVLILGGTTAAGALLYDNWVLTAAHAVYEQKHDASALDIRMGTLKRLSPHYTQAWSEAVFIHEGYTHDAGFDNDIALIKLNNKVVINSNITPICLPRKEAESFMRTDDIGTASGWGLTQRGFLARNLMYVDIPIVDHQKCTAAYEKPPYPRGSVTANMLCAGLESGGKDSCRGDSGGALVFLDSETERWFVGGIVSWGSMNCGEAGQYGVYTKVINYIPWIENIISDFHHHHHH
assay_info: cell-based or functional assay
Numbered stars: 1 amine (or outer) side, 2 acyl side, 3 side chain; on linkers, the order of the positions; unused ones are H or OH. Bridge positions count the residues as written; N and C are the ends. Square brackets hold non-standard residues; d marks the D form. Ends that are not written are not given here. * marks the point of attachment. (S)‑4‑Piperazine‑2‑carboxylic acid = (S)-4-piperazine-2-carboxylic acid; X11 = (S)‑Piperidine‑3‑carboxylic acid, O=C([C@H]1CCCN([*:1])C1)[*:2]; (R)‑Pyrrolidine‑3‑acetic acid = O=C(C[C@H]1CCN([*:1])C1)[*:2]; Phe(2,5-diF) = O=C([C@H](Cc1cc(F)ccc1F)N[*:1])[*:2]; NH(CH2CH2O)4CH2CO = O=C(COCCOCCOCCOCCN[*:1])[*:2]; Piperidin‑4‑ylacetic acid = O=C(CC1CCNCC1)*; Oic = O=C(O)[C@@H]1C[C@@H]2CCCC[C@@H]2N1; tBuAla = CC(C)(C)C[C@H](N)C(=O)O; Pen = CC(C)(S)[C@H](N)C(=O)O; Sar = CNCC(=O)O
I'd be grateful if you could share measured human MASP2 IC50 for these entries.
Quick note: give the figure in µM, leave out the unit.

Exercise: Item under review: [Sar]ICSRSLP[Oic]I[Pen]IP[(R)‑Pyrrolidine‑3‑acetic acid]-OH (disulfide 3-11; N-terminus assumed; SMILES CC[C@H](C)[C@H](NC(=O)CNC)C(=O)N[C@H]1CSSC(C)(C)[C@@H](C(=O)N[C@H](C(=O)N2CCC[C@H]2C(=O)N2CC[C@H](CC(=O)O)C2)[C@@H](C)CC)NC(=O)[C@H]([C@@H](C)CC)NC(=O)[C@@H]2C[C@@H]3CCCC[C@@H]3N2C(=O)[C@@H]2CCCN2C(=O)[C@H](CC(C)C)NC(=O)[C@H](CO)NC(=O)[C@H](CCCNC(=N)N)NC(=O)[C@H](CO)NC1=O) [((N-Me)G)-IC+SRSLP-(Oic)-I-(Pen)+IP-((R)-Pyrrolidine-3-acetic acid)-OH] . Reported human MASP2 IC50?
Key: 0.116

Exercise: Item under review: [Sar]ICSRS[tBuAla]PPI[Pen]IP[NH(CH2CH2O)4CH2CO]-OH (disulfide 3-11; N-terminus assumed; SMILES CC[C@H](C)[C@H](NC(=O)CNC)C(=O)N[C@H]1CSSC(C)(C)[C@@H](C(=O)N[C@H](C(=O)N2CCC[C@H]2C(=O)NCCOCCOCCOCCOCC(=O)O)[C@@H](C)CC)NC(=O)[C@H]([C@@H](C)CC)NC(=O)[C@@H]2CCCN2C(=O)[C@@H]2CCCN2C(=O)[C@H](CC(C)(C)C)NC(=O)[C@H](CO)NC(=O)[C@H](CCCNC(=N)N)NC(=O)[C@H](CO)NC1=O) [((N-Me)G)-IC+SRS-((tBu)A)-PPI-(Pen)+IP-(PEG4-CH2CO2H(15 atoms))-OH] . Reported human MASP2 IC50?
Key: 0.076

Exercise: Item under review: [Sar]ICSRSLP[Oic]I[Pen]IPDK-OH (disulfide 3-11; N-terminus assumed; SMILES CC[C@H](C)[C@H](NC(=O)CNC)C(=O)N[C@H]1CSSC(C)(C)[C@@H](C(=O)N[C@H](C(=O)N2CCC[C@H]2C(=O)N[C@@H](CC(=O)O)C(=O)N[C@@H](CCCCN)C(=O)O)[C@@H](C)CC)NC(=O)[C@H]([C@@H](C)CC)NC(=O)[C@@H]2C[C@@H]3CCCC[C@@H]3N2C(=O)[C@@H]2CCCN2C(=O)[C@H](CC(C)C)NC(=O)[C@H](CO)NC(=O)[C@H](CCCNC(=N)N)NC(=O)[C@H](CO)NC1=O) [((N-Me)G)-IC+SRSLP-(Oic)-I-(Pen)+IPDK-OH] . Reported human MASP2 IC50?
Key: 0.26

Exercise: Item under review: [X11]ICSRSLP[Oic]I[Pen]IPD-OH (disulfide 3-11; N-terminus assumed; SMILES CC[C@H](C)[C@H](NC(=O)[C@H]1CCCNC1)C(=O)N[C@H]1CSSC(C)(C)[C@@H](C(=O)N[C@H](C(=O)N2CCC[C@H]2C(=O)N[C@@H](CC(=O)O)C(=O)O)[C@@H](C)CC)NC(=O)[C@H]([C@@H](C)CC)NC(=O)[C@@H]2C[C@@H]3CCCC[C@@H]3N2C(=O)[C@@H]2CCCN2C(=O)[C@H](CC(C)C)NC(=O)[C@H](CO)NC(=O)[C@H](CCCNC(=N)N)NC(=O)[C@H](CO)NC1=O) [((S)-Piperidine-3-Carboxylic Acid)-IC+SRSLP-(Oic)-I-(Pen)+IPD-OH] . Reported human MASP2 IC50?
Key: 0.032

Exercise: Item under review: {Piperidin‑4‑ylacetic acid}-ICSRS[tBuAla]PPICIPD-OH (disulfide 2-10; SMILES CC[C@H](C)[C@H](NC(=O)CC1CCNCC1)C(=O)N[C@H]1CSSC[C@@H](C(=O)N[C@H](C(=O)N2CCC[C@H]2C(=O)N[C@@H](CC(=O)O)C(=O)O)[C@@H](C)CC)NC(=O)[C@H]([C@@H](C)CC)NC(=O)[C@@H]2CCCN2C(=O)[C@@H]2CCCN2C(=O)[C@H](CC(C)(C)C)NC(=O)[C@H](CO)NC(=O)[C@H](CCCNC(=N)N)NC(=O)[C@H](CO)NC1=O) [(Piperidin-4-ylacetic acid)-IC+SRS-((tBu)A)-PPIC+IPD-OH] . Reported human MASP2 IC50?
Key: 0.018

Exercise: Item under review: [Sar]ICSRSLP[Oic]I[Pen]I[(S)‑4‑Piperazine‑2‑carboxylic acid]-OH (disulfide 3-11) [((N-Me))-GIC+SRSLP-(Oic)-I-(Pen)+I-((S)-4-Piperazine-2-carboxylic acid)-OH] . Reported human MASP2 IC50?
Key: 0.078

Exercise: Item under review: [Sar]ICSRS[Phe(2,5-diF)]PPI[Pen]IP[dE]-OH (disulfide 3-11; N-terminus assumed; SMILES CC[C@H](C)[C@H](NC(=O)CNC)C(=O)N[C@H]1CSSC(C)(C)[C@@H](C(=O)N[C@H](C(=O)N2CCC[C@H]2C(=O)N[C@H](CCC(=O)O)C(=O)O)[C@@H](C)CC)NC(=O)[C@H]([C@@H](C)CC)NC(=O)[C@@H]2CCCN2C(=O)[C@@H]2CCCN2C(=O)[C@H](Cc2cc(F)ccc2F)NC(=O)[C@H](CO)NC(=O)[C@H](CCCNC(=N)N)NC(=O)[C@H](CO)NC1=O) [((N-Me)G)-IC+SRS-((2,5-Difluoro)F)-PPI-(Pen)+IPe-OH] . Reported human MASP2 IC50?
Key: 0.064

Exercise: Item under review: [Sar]ICSRSLP[Oic]I[Pen]IPDA-OH (disulfide 3-11; N-terminus assumed; SMILES CC[C@H](C)[C@H](NC(=O)CNC)C(=O)N[C@H]1CSSC(C)(C)[C@@H](C(=O)N[C@H](C(=O)N2CCC[C@H]2C(=O)N[C@@H](CC(=O)O)C(=O)N[C@@H](C)C(=O)O)[C@@H](C)CC)NC(=O)[C@H]([C@@H](C)CC)NC(=O)[C@@H]2C[C@@H]3CCCC[C@@H]3N2C(=O)[C@@H]2CCCN2C(=O)[C@H](CC(C)C)NC(=O)[C@H](CO)NC(=O)[C@H](CCCNC(=N)N)NC(=O)[C@H](CO)NC1=O) [((N-Me)G)-IC+SRSLP-(Oic)-I-(Pen)+IPDA-OH] . Reported human MASP2 IC50?
Key: 0.084
